Recorded values, source ChEMBL document CHEMBL1201862.

- System: UACC-257
- Assay Summary: NCI tumour cell line growth inhibition, 48 h
Active and inactive are the calls of the source. No stated cut-off is given here; in the data, active = GI50 up to about 1.1 µM and inactive = higher.
Parameter Measured: GI50

Q) Please report the measured GI50 for c1ccc(C2=NCCc3cc4c(cc32)OCO4)cc1
A) > 100 µM (inactive)

Q) Please report the measured GI50 for COC(=O)/C=C\C(C#N)(C#N)/N=C/c1cccs1
A) 14.4 µM (inactive)

Q) Please report the measured GI50 for NCC(NC(=O)OCc1ccccc1)C(=O)O (stereo not given)
A) > 50 µM (inactive)

Q) Please report the measured GI50 for CC(=O)NCCC1CN(C(=O)/C=C/I)c2ccccc21 (stereo not given)
A) 7.48 µM (inactive)

Q) Please report the measured GI50 for CC[C@]12C=CCN3CC[C@@]4(c5cc(Br)c(OC)c([N+](=O)[O-])c5N(C)[C@H]4[C@@](O)(C(=O)OC)[C@@H]1OC(C)=O)[C@@H]32
A) 33.3 µM (inactive)

Q) Please report the measured GI50 for COC(=O)C1=C(C(=O)OC)C(C(=O)OC)C(C(=O)OC)C(C(=O)OC)(C(=O)OC)C(C(=O)OC)=C1C(=O)OC (stereo not given)
A) 13.9 µM (inactive)

Q) Please report the measured GI50 for Fc1cc2nc3n(c2cc1F)C(c1c(Cl)cccc1Cl)SC3 (stereo not given)
A) 13.6 µM (inactive)

Q) Please report the measured GI50 for COc1cc(/C=C2\CCC/C(=C\c3cc(OC)c(O)c(OC)c3)C2=O)cc(OC)c1O
A) 3.42 µM (inactive)

Q) Please report the measured GI50 for O=C(CC(NC(=O)OCc1ccccc1)C(=O)NC1Cc2ccccc2C1=O)OCc1ccccc1 (stereo not given)
A) 86.5 µM (inactive)

Q) Please report the measured GI50 for OCCCC(O)(c1ccccc1)c1ccccc1
A) > 100 µM (inactive)

###

- Tested on: HCT-116
- Assay Summary: NCI tumour cell line growth inhibition, 48 h
Activity calls are given as the source filed them. Rule as the data show it: active = GI50 up to about 1.1 µM and inactive = higher.
Parameter Measured: GI50

Q) Please report the measured GI50 for NC(=O)N/N=C(/c1nc2ccc([N+](=O)[O-])cc2nc1O)C(O)c1ccco1 (stereo unspecified)
A) > 100 µM (inactive)

Q) Please report the measured GI50 for CSc1nc(Cl)c2c(n1)Sc1nc3ccccc3n1N=C2
A) 25.1 µM (inactive)

Q) Please report the measured GI50 for O=c1[nH]nc(Cc2ccc(Cl)cc2)n1/N=C/c1ccc([N+](=O)[O-])o1
A) 1.29 µM (inactive)

Q) Please report the measured GI50 for O=C(c1nc2ccc(Cl)cc2nc1O)C(O)c1ccccc1 (stereo unspecified)
A) > 100 µM (inactive)

Q) Please report the measured GI50 for CC1CCc2sc3nc(S)n(C)c(=O)c3c2C1 (stereo unspecified)
A) 34.5 µM (inactive)

Q) Please report the measured GI50 for O=[N+]([O-])c1ccccc1S(=O)(=O)c1cc(O)cc2c1NCCC2
A) 5.78 µM (inactive)

Q) Please report the measured GI50 for O=C1c2ccccc2C(=O)N1n1c(Cc2ccc(Cl)cc2)n[nH]c1=O
A) > 100 µM (inactive)

Q) Please report the measured GI50 for CN(C)P(=O)(/C(N)=N/Nc1ccc([N+](=O)[O-])cc1)N(C)C
A) > 100 µM (inactive)

Q) Please report the measured GI50 for CN1NC2(CCCCC2)ON=C1c1ccccc1
A) > 100 µM (inactive)

Q) Please report the measured GI50 for CCOc1ccc(/C=C2/C(=O)N=C(N)N=C2N)cc1OCC
A) > 100 µM (inactive)

Q) Please report the measured GI50 for O=c1[nH][nH]c(=O)[nH]1
A) > 100 µM (inactive)

###

- System: DU-145
- Assay Summary: NCI tumour cell line growth inhibition, 48 h
Activity calls are given as the source filed them. No stated cut-off is given here; in the data, active = GI50 up to about 1.1 µM and inactive = higher.
Parameter Measured: GI50

Q) Write down the reported GI50 (system: DU-145) of COC(=NC(C)C)NC(C)C
A) > 100 µM (inactive)

Q) Write down the reported GI50 (system: DU-145) of O=c1[nH]nc(Cc2ccc([N+](=O)[O-])cc2)[nH]1
A) > 100 µM (inactive)

Q) Write down the reported GI50 (system: DU-145) of CN1CC2=C(OC(N)=C(C#N)C2c2cccs2)/C(=C/c2cccs2)C1 (stereo not given)
A) 23.4 µM (inactive)

Q) Write down the reported GI50 (system: DU-145) of COc1cccc(CCNc2c(C#N)c3n(c4ccccc4[n+]3C)c3ncccc23)c1
A) 5.42 µM (inactive)

Q) Write down the reported GI50 (system: DU-145) of CCCCCC(O)[C@H]1C(=O)C[C@@H](O[Si](C)(C)C(C)(C)C)[C@@H]1/C=C/CCOCc1ccccc1 (stereo not given in full)
A) 20 µM (inactive)

Q) Write down the reported GI50 (system: DU-145) of Fc1ccc2c(c1)SC1=Nc3sc4cc(F)ccc4[n+]3CN12
A) 26.7 µM (inactive)

Q) Write down the reported GI50 (system: DU-145) of Fc1cc2nc3n(c2cc1F)C(c1c(Cl)cccc1Cl)SC3 (stereo not given)
A) 17.5 µM (inactive)

Q) Write down the reported GI50 (system: DU-145) of N#C[BH2-][n+]1cn(C2CC(O)C(COP(=O)(O)OC3CC(n4c[n+]([BH2-]C#N)c5c(=O)[nH]c(N)nc54)OC3CO)O2)c2nc(N)[nH]c(=O)c21 (stereo not given)
A) > 100 µM (inactive)

Q) Write down the reported GI50 (system: DU-145) of CCOCCOCCOCc1nc(C#N)c(N)o1
A) > 100 µM (inactive)

Q) Write down the reported GI50 (system: DU-145) of CC1=CC(=O)C2=C(C)CCC3C(C)C(=O)OC3C12 (stereo not given)
A) > 100 µM (inactive)

###

Would you mind telling me the reported GI50 of each entry?
- System: UACC-62
- Assay Summary: NCI tumour cell line growth inhibition, 48 h
Activity calls are given as the source filed them. Rule as the data show it: active = GI50 up to about 1.1 µM and inactive = higher.

Q) Please report the measured GI50 for CNC(=O)OCC1=C(COC(=O)NC)CN(c2ccccc2)C1
A) > 100 µM (inactive)

Q) Please report the measured GI50 for O=C(Nc1c(C(=O)NC2CCCCC2)[nH]c(=O)[nH]c1=O)c1ccc(Cl)cc1
A) > 100 µM (inactive)

Q) Please report the measured GI50 for CCCCCOP(=O)(OCCCCC)C(NC(C)=O)(C(=O)OCC)C(F)(F)F (stereo unspecified)
A) > 100 µM (inactive)

Q) Please report the measured GI50 for Oc1ccc(Cl)cc1Sc1cc(Cl)ccc1O
A) 5.66 µM (inactive)

Q) Please report the measured GI50 for Nc1ncnc2c1ncn2[C@H]1CC[C@@H](NO)C1
A) > 100 µM (inactive)

Q) Please report the measured GI50 for Cn1cc(NC(=O)[C@H]2CCC(N)=N2)cc1C(=O)NCCC(=N)N
A) > 100 µM (inactive)

Q) Please report the measured GI50 for CSc1c(CC(=O)Nc2ccc(Cl)cc2)n(Cc2ccccc2)c2ccccc12
A) 18.1 µM (inactive)

Q) Please report the measured GI50 for COc1ccc(-c2c3c(nc4nc(SCCc5ccccc5)nc(N)c24)CCCC3)cc1OC
A) > 100 µM (inactive)

Q) Please report the measured GI50 for N#CC1CCCCCCCCCCC(=O)N(CCCl)C1=O (stereo unspecified)
A) > 100 µM (inactive)

Q) Please report the measured GI50 for CC(=O)OC1CC2(C)OC(Cc3ccccc32)O1 (stereo unspecified)
A) > 100 µM (inactive)

Q) Please report the measured GI50 for COc1cccc(CSCC(=O)O)c1
A) > 100 µM (inactive)

###

- Tested on: LXFL 529
- Assay Summary: NCI tumour cell line growth inhibition, 48 h
Calls of active or inactive are those of the source. No stated cut-off is given here; in the data, active = GI50 up to about 1.1 µM and inactive = higher.
# valid calls are active, inactive; nothing else

Q) Recorded test outcome, item O=C(c1nc2ccc(Cl)cc2nc1O)C(O)c1ccccc1 (stereo not given)
A) inactive

Q) Recorded test outcome, item CCOC(C)C(/C=N/NC(N)=S)=NNC(N)=S (stereo not given)
A) active

Q) Recorded test outcome, item O=C(c1ccc(Cl)cc1)N(C(=S)N1CCN(c2ccccn2)CC1)c1ccccc1
A) inactive

Q) Recorded test outcome, item COc1nc2c(c(O)c(C)c(=O)n2OC2OC(COC(C)=O)C(OC(C)=O)C(OC(C)=O)C2OC(C)=O)c(=O)n1C (stereo not given)
A) inactive

Q) Recorded test outcome, item N=C1NC2(O)C(=O)c3ccccc3C2(O)N1 (stereo not given)
A) inactive

Q) Recorded test outcome, item COC(=O)c1cc2cc(OC)c(OC)cc2cc(C(=O)OC)c1=O
A) inactive

Q) Recorded test outcome, item Cc1cccc(C(C)C)c1NC(=O)/C(Cc1c([N+](=O)[O-])cccc1[N+](=O)[O-])=N/NC(=O)CC#N
A) inactive

Q) Recorded test outcome, item CCCCN(CCCC)C(=O)C(=O)C(C)C(=O)CC (stereo not given)
A) inactive

Q) Recorded test outcome, item Cn1cnc([N+](=O)[O-])c1Sc1nc2cc(Cl)c(F)cc2[nH]1
A) inactive

Q) Recorded test outcome, item COc1cc2c(cc1OCc1ccccc1)CNCC2
A) inactive
